Consider the following molecules; for each one, report its clearance.
PROTOCOL DESCRIPTION: Clearance in Sprague-Dawley rat at 5 mg/kg, iv measured upto 24 hrs by LC-MS/MS analysis
Format: ADME, organism-based
MEASUREMENT SETUP: in vivo
Quick note: unit goes after the number.

Data request, read-out clearance, for [2H]C([2H])([2H])Nc1cc(F)cc2c1[nH]c1nc(Oc3cnc(C)nc3)nc(N3CC(=C(C)[C@@H](C)N)C3)c12
132 mL/min/kg

Please give the measured clearance for this molecule: [2H]C([2H])([2H])Nc1cc(F)cc2c1[nH]c1nc(Oc3cnc(C)nc3)nc(N3CC(=C(C)C(C)N)C3)c12 (centres undefined)
121 mL/min/kg

clearance for CCNc1cc(F)cc2c1[nH]c1nc(Oc3cnc(C)nc3)nc(N3CC(=C(C)[C@@H](C)N)C3)c12 ?
64.7 mL/min/kg

Item CNc1cc(F)cc2c1[nH]c1nc(Oc3cnc(C)nc3)nc(N3CC(=C(C)[C@@H](C)N)C3)c12 has what recorded clearance?
76.6 mL/min/kg

* * *

Answer each item with its documented Vd.
PROTOCOL DESCRIPTION: Volume of distribution at the steady state in Sprague-Dawley rat at 5 mg/kg, iv measured upto 24 hrs by LC-MS/MS analysis
Assay type: ADME, organism-based
MEASUREMENT SETUP: in vivo, read-out: Vdss
Number in L/kg, nothing else.

I'd like to know its Vd. The compound in question is CCNc1cc(F)cc2c1[nH]c1nc(Oc3cnc(C)nc3)nc(N3CC(=C(C)[C@@H](C)N)C3)c12
16.7

Sample [2H]C([2H])([2H])Nc1cc(F)cc2c1[nH]c1nc(Oc3cnc(C)nc3)nc(N3CC(=C(C)C(C)N)C3)c12 (centres undefined) — what was its Vd?
43.2

I am curious: what Vd value has been reported for [2H]C([2H])([2H])Nc1cc(F)cc2c1[nH]c1nc(Oc3cnc(C)nc3)nc(N3CC(=C(C)[C@@H](C)N)C3)c12 ?
44.5

Which Vd value is on record for CNc1cc(F)cc2c1[nH]c1nc(Oc3cnc(C)nc3)nc(N3CC(=C(C)[C@@H](C)N)C3)c12 ?
35.7

* * *

PROTOCOL DESCRIPTION: Cytotoxicity against human L02 cells assessed as cell viability measured for 48 hrs by CCK-8 assay
Assay type: toxicity, cell-based
REPORTED PROPERTY: CC50 at 48 h
A bare number is not enough; add the unit after it.

Please give the measured CC50 at 48 h for this compound: CNc1cc(F)cc2c1[nH]c1nc(Oc3cnc(C)nc3)nc(N3CC(=C(C)[C@@H](C)N)C3)c12
16 µM

What value of measured CC50 at 48 h is listed for CCC(CN)=C1CN(c2nc(Oc3cnc(C)nc3)nc3[nH]c4c(NC)cc(F)cc4c23)C1 ?
9.74 µM

Quick one: CC50 at 48 h of CNc1cc(F)cc2c1[nH]c1nc(Oc3cnc(C)nc3)nc(N3CC4CCNC4C3)c12 (racemic) ?
24 µM

What value of measured CC50 at 48 h is listed for C=CCC(CN)=C1CN(c2nc(Oc3cnc(C)nc3)nc3[nH]c4c(NC)cc(F)cc4c23)C1 ?
6.99 µM

* * *

Give Fh at 1 h, 0.1 µM for every item shown.
PROTOCOL DESCRIPTION: Metabolic stability in rat liver microsome assessed as metabolic bioavailability at 0.1 uM in presence of NADPH incubated upto 60 mins by LC-MS/MS analysis
Type: ADME
MEASUREMENT SETUP: liver microsomes
Answer in %, number only, no unit symbol.

Find the recorded Fh at 1 h, 0.1 µM belonging to CNc1cc(F)cc2c1[nH]c1nc(Oc3cnc(C)nc3)nc(N3CC(=C(CN)C(C)C)C3)c12 and report it.
27.3

Could you tell me which Fh at 1 h, 0.1 µM is on file for CCC(CO)=C1CN(c2nc(Oc3cnc(C)nc3)nc3[nH]c4c(NC)cc(F)cc4c23)C1 ?
14.8

Fill in: Fh at 1 h, 0.1 µM of CCC(CN)=C1CN(c2nc(Oc3cnc(C(C)O)nc3)nc3[nH]c4c(NC)cc(F)cc4c23)C1 (configuration not stated) is ___
24.3

# input compound: [2H]C([2H])([2H])Nc1cc(F)cc2c1[nH]c1nc(Oc3cnc(C)nc3)nc(N3CC(=C(C)[C@@H](C)N)C3)c12 ; wanted: its Fh at 1 h, 0.1 µM
17.2

Field request: Fh at 1 h, 0.1 µM | item: CNc1cc(F)cc2c1[nH]c1nc(Oc3cnc(C)nc3)nc(N3CC(=C(C)C(C)N)C3)c12 (racemic)
26.1

Query (compound): CCCC(CN)=C1CN(c2nc(Oc3cnc(C)nc3)nc3[nH]c4c(NC)cc(F)cc4c23)C1 ; field requested: Fh at 1 h, 0.1 µM
34.5

For the compound CNc1cc(F)cc2c1[nH]c1nc(Oc3cnc(C)nc3)nc(N3CC(=C(C)[C@@H](C)N)C3)c12 , what Fh at 1 h, 0.1 µM is on record?
15

Can you share its Fh at 1 h, 0.1 µM? I mean this compound: CNc1cc(F)cc2c1[nH]c1nc(Oc3cnc(C)nc3)nc(N3CC(=CC(C)N)C3)c12 (configuration not stated)
19.7

Fill in: Fh at 1 h, 0.1 µM of [2H]C([2H])([2H])Nc1cc(F)cc2c1[nH]c1nc(Oc3cnc(C)nc3)nc(N3CC(=C(CC)CN)C3)c12 is ___
41

So what does the record say about Fh at 1 h, 0.1 µM for CCC(CN)=C1CN(c2nc(Oc3cnc(CO)nc3)nc3[nH]c4c(NC)cc(F)cc4c23)C1 ?
20.1

Fill in the blank: the reported Fh at 1 h, 0.1 µM of CCC(CN)=C1CN(c2nc(Oc3cnc(C)nc3)nc3[nH]c4c(NC)cc(F)cc4c23)C1 is ____.
37.4

State the recorded Fh at 1 h, 0.1 µM for this entry: [2H]C([2H])([2H])Nc1cc(F)cc2c1[nH]c1nc(Oc3cnc(C)nc3)nc(N3CC(=C(C)C(C)N)C3)c12 (configuration not stated)
30

Hey, just so you know, these numbers are from ChEMBL document CHEMBL5096186.
